assay: amyloid nucleation score (Sup35N fusion, yeast selection) (log enrichment); library NNK2; higher = more nucleation; inactive = no reads after selection;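 note: zero at mode of non-aggregating sequences after 7 days selection at 30°C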

# Substance, amyloid nucleation score
data = [
    ("SGPIEIRPCIPRKLVCSYRH", 1.01),
    ("RDLARTMI", 1.67),
    ("SLLWFKTVSLLRYNQF", -0.363),
    ("HYWNWYVEL", 4.58),
    ("DFVHVEIDPYQVGGGFQ", 8.76),
    ("LYTRMPMYGHSEKFLVCESS", -0.486),
    ("SQVQSFIFSPGLNNSKAEFT", -0.078),
    ("DVRRLLFLLLGQ", -0.796),
    ("YSLRLDVYYRGWADYPGLWT", 1.73),
    ("TCFEEFLQKFMYCATFMKKM", -0.403),
    ("ILRDDGPNYRFQIRLL", 4.65),
    ("MLDLIRLNDVICSQKFH", 0.48),
    ("ACCLIAIWRPI", 5.47),
    ("VFIMRISCY", -0.424),
    ("VEMSEDEPCLWYGSLIPGTR", 2.83),
    ("SAFSFAIVIYFRLCKVGLVD", -0.92),
    ("WFVGCHTVRR", 0.84),
    ("DSTFKYYRTYLKERR", -0.357),
    ("ETLSQIMFYVKIIAYDCRNP", 2.66),
    ("LKYVVTVHIMFMLSSWSQGC", -0.814),
    ("VANNTGAKSYVFMARNAMCF", -0.602),
    ("ISRVSGGQTLPSGLVMG", -0.326),
    ("NVLCKRVMMV", 0.384),
    ("PYTFQYY", -0.549),
    ("MTWARRRSINIYDRHLRMAG", -0.388),
    ("FSRLNSWILRSHGNKVKALT", 0.552),
    ("GRMQTKTILKNIECNNDSLM", 2.39),
    ("SFGTFVSGTALLGSMFCTTG", 0.285),
    ("SLFLVRKDFMFCLTSLASVR", 2.07),
    ("KGVLSGTWGGIRRIMTHVHD", 0.004),
    ("TYVCDNTESYTCLWLL", 7.79),
    ("FCALPWGFFGYMGNLNLYSD", 2.62),
    ("HNLWCDISLFGHIYRGRGTM", 7.21),
    ("YGSCGQRKN", 0.519),
    ("LWAYPLSMLWGKLFMDGMLL", -0.486),
    ("RNYHIQYIAVRVLIPASA", 5),
    ("LRGYVY", 0.228),
    ("SSMRRGVIRRCNYKL", -0.992),
    ("CDFAIPYYNGPYSQKFLMTS", -0.321),
    ("LLFARK", -0.038),
    ("GVHISRVVCQN", 0.265),
    ("GLLIGSDDLLASVICVITCS", -1.15),
    ("GLSVKTGQGSGFPDLCVGKR", 0.838),
    ("QFSLLTKYTNVHILGSEEFG", 0.388),
    ("TGLNLFRDSQTGELGGGYTR", 5.5),
    ("WGNVLNLYNR", 4.53),
    ("GCVLSVSWWVGSSLVNWGYY", 5.36),
    ("TSGFRKHNVQRRLECTPGDW", 1.14),
    ("IVRVSMGYGIIPLICSKTEG", 0.859),
    ("CVCYDLYELLAITQLHLWSF", -0.344),
    ("RSNNTIFGKLFSGAILLCWV", -1.2),
    ("YFFFIVLDLYLMSCFGVVCE", -1.13),
]
